Origin of values: a melting point compilation (Tetko et al.; mined from patent text by program, amines drawn as free bases though some values may be those of a salt)

Examples of compounds with documented melting point follow.

| compound | melting point |
| --- | --- |
| CN1C(=O)C(=NC(Cl)=C(Cl)Cl)N(c2ccc(Cl)cc2)C1=O | 108 to 110 °C |
| CCCn1c(=O)c2[nH]c(/C=C/c3cccnc3)nc2n(CCC)c1=O | 265 to 267 °C |
| C=CCOc1cc(C=CC(=O)O)ccc1OC(C)=O | 154 to 155 °C |
| CCN(CC)C(=O)c1ccccc1-c1ccc(OC)cc1 | 46 to 47 °C |
| CCNC(=O)c1c(Br)cccc1[Si](C)(C)C | 121 to 122 °C |
| COc1cc(CCC=O)ccc1OCc1nc(-c2ccccc2)oc1C | 80 to 81 °C |
| COc1ccc2sc(Nc3ccc(OCCCl)cc3)nc2c1 | 176 to 178 °C |
| CN(C)CCOc1cc(-c2ccccc2)on1 | 28 to 29 °C |
| COc1cc(N)c(Cl)cc1C(=O)N[C@H]1CCN(CCCN2C(=O)c3ccccc3C2=O)C[C@H]1OC (relative stereo) | 208 °C |
| O=C1CCC2c3ccccc3CCC2N1 (stereo unspecified) | 227 to 228 °C |
| FC(F)(F)Sc1cn(-c2c(Cl)cc(C(F)(F)F)cc2Cl)c(Cl)n1 | 112 °C |

###

| compound | melting point |
| --- | --- |
| OC1CCc2[nH]c3ccccc3c2C1 (stereo not given) | 140 °C |
| COc1ccc(C2(C#N)CC=C(C(=O)O)CC2)cc1OC1CCCC1 (stereo not given) | 161 to 163 °C |
| CC(=S)NCC1CN(c2ccc(-c3csc(Cn4cncn4)n3)c(F)c2)C(=O)O1 (stereo not given) | 82 to 84 °C |
| Cc1csc(NC(=O)C2(CN3CCN(c4nc(C)cs4)C3=O)C=CC=CC2)n1 (stereo not given) | 197 to 198 °C |
| CC(=O)C(=Cc1cccc([N+](=O)[O-])c1)P(=O)(OCC(C)(C)C)OCC(C)(C)C | 139 to 140 °C |
| CCCCCn1c(C#N)ccc1-c1ccc2c(c1)C(C)(C)OC(=O)N2 | 128 to 131 °C |
| Cc1nc(CO)ccc1CO | 94 to 96 °C |
| COc1cc(C(C)C)ccc1C1(NC(N)=O)C(=O)c2ccccc2C1=O | 272 to 274 °C |
| CCSc1cc(C)nc(SCC)c1NC(=O)CCCCCCSc1nc2c(C)c(Cl)cc(C(C)C)c2o1 | 117 to 120 °C |
| OCCCn1c(-c2c(Cl)cccc2Cl)nc(-c2ccncc2)c1-c1ccc(Cl)cc1 | 233 to 235 °C |
| CCOC(=O)c1cn(C2CC2)c2c(F)c(CCc3cc(Cc4cnc(N)nc4N)cc(OC)c3OC)c(F)cc2c1=O | 218 to 220 °C |
| CCOC(=O)C=Cc1ccc(Cl)c(Cl)c1 | 56 °C |
| COc1ccc2c(-c3cccc(F)c3)noc2c1Cl | 149 to 150 °C |
| CC[C@H](C)[C@H](NC(=O)O[C@@H](CC(C)C)C(=O)O)C(=O)NC1CCCCC1 | 193 to 195 °C |
| CCCCCc1c(-c2ccc3cc(O)ccc3c2)n(Cc2ccccc2)c2ccccc12 | 96 to 100 °C |
| Fc1cc(F)c(COc2cccnc2NC(=S)Nc2ccc(Cl)cc2)c(F)c1 | 181 to 183 °C |
| CCC1(CC)CC(O)CC(C)(C)N1OC(C)c1ccccc1 (stereo not given) | 84 to 86 °C |
| CC(C)CC(C(=O)O)c1cc(OCC2CC2)c(-c2ccc(C(F)(F)F)cc2)cc1F (stereo not given) | 110 to 111 °C |
| O=C(Nc1c(OCc2ccccc2)cccc1C(=O)O)c1ccccc1 | 114 to 116 °C |
| CCNc1nc(=S)n(Cc2ccc(OC)c(OC3CCCC3)c2)c2nc(C(C)C)[nH]c12 | 72 to 77 °C |

###

resultType: melting point

| compound | resultType | reportedValue |
| --- | --- | --- |
| COC(=O)c1cnc(N)c(N)c1 | melting point | 154 to 155 °C |
| Cc1[nH]c(C(=O)NCCN2CCCCC2)c(C)c1-c1nc2ccc(C(=O)c3ccccc3)cc2[nH]1 | melting point | 230 to 237 °C |
| Cc1cc(Cc2ccc(O)cc2)n(C)c1C(=O)c1ccc(Cl)cc1 | melting point | 183 to 185 °C |
| CN1CC(C(=O)c2coc(Cc3ccc(F)cc3)c2)=C(O)C1=O | melting point | 158 to 160 °C |
| CCc1cc2c(=O)n3cc(C(=O)O)ccc3nc2s1 | melting point | 255 to 257 °C |
| NC(=S)C1CCCc2c1ncc1c2CCCC1 (stereo unspecified) | melting point | 162 °C |
| CCCc1nc2c(N)nc3ccccc3c2n1CC(C)(C)CC1(C)OCCO1 | melting point | 186 to 188 °C |
| CCCCOc1ccc(S(=O)(=O)C2(C(=O)NO)CCN(CCCC)CC2)cc1 | melting point | 121 °C |
| Cc1ccccc1C(=O)Nc1ccc(C(=O)N2CCCC(N(C)C)c3ccccc32)c(C)c1 (stereo unspecified) | melting point | 183 to 185 °C |
| COc1ccc(-c2cc(O)nc(Nc3ccc(OC)c(Cl)c3)n2)cc1 | melting point | 292 to 294 °C |
| CC(SC1COC(c2ccc(C(=O)Nc3ccc(C#N)c(Cl)c3)cc2)OC1)C(O)(Cn1cncn1)c1ccc(F)cc1F (stereo unspecified) | melting point | 115 °C |
| O=C(O)CCCCCCc1cc(-c2ccccc2)c2ccccc2n1 | melting point | 39 °C |
| COc1cc2c(c3c1C1CCC3CC1)OC(COS(=O)(=O)c1ccc(C)cc1)C2 (stereo unspecified) | melting point | 136 to 141 °C |
| Nc1ccc(-c2cc3c(N4CCCc5ccccc54)ncnc3[nH]2)cc1 | melting point | 243 to 245 °C |
| CC1CC(N)=NN1c1ccccc1 (stereo unspecified) | melting point | 104 to 106 °C |
| CC(C)CC(C(=O)O)c1cc(OCC2CC2)c(-c2ccc3nonc3c2)cc1F (stereo unspecified) | melting point | 110 to 111 °C |
| CCc1ccc(-c2ccc3c(c2)C=C(C(=O)Nc2ccc(CN(C)C4CCOCC4)cc2)CCN3C)cc1 | melting point | 164 to 165 °C |
| O=C1CC(Sc2nnc(S)s2)C(=O)O1 (stereo unspecified) | melting point | 194 to 196 °C |
| S=C=Nc1ccccc1-c1ccc(Cl)cc1 | melting point | 63 °C |
| Cc1cc(O)ccc1Nc1ccccc1C(=O)O | melting point | 209 to 211 °C |
| CNc1nc2c(s1)C(=O)CCC2 | melting point | 180 to 182 °C |

###

Examples of molecules with documented melting point follow.
resultType: melting point

| molecule | reportedValue |
| --- | --- |
| CC1(C)CN2C(=O)c3ncccc3C(O)(c3ccc(Cl)cc3)C2=N1 (centres undefined) | 257 to 260 °C |
| CC(=O)Nc1ccc(NC2CCN3CCc4ccccc4C3C2)cc1 (centres undefined) | 210 to 213 °C |
| COc1ccc(C(=Cc2c(Cl)cncc2Cl)c2ccccc2)cc1OC1CCCC1 | 138 to 140 °C |
| NS(=O)(=O)c1cc(C(=O)O)cc(NCc2ccc3c(c2)OCO3)c1Oc1ccccc1 | 229 to 230 °C |
| CCOC(=O)C1=C(C)NC(CN2C(=O)c3ccccc3C2=O)=C(C(=O)OCC)C1c1cccc(Cl)c1 (centres undefined) | 135 to 136 °C |
| Cc1cc(Nc2cc(F)c(F)cc2C(=O)O)n(-c2ccccn2)n1 | 247 to 248 °C |
| CC1=NOC2C3CC(C12)C1C(=O)OC(=O)C31 (centres undefined) | 194 to 197 °C |
| CCCCc1nc2cc(Cl)cc(C(=O)OC)c2n1Cc1ccc(-c2ccccc2-c2nnn[nH]2)cc1 | 132 to 133 °C |
| CCOC(=O)c1ccc2c(c1)C(=O)NC(C(Cl)(Cl)Cl)N2 (centres undefined) | 243 to 244 °C |

###

Examples of compounds with documented melting point follow.
resultType: melting point

| compound | reportedValue |
| --- | --- |
| CCC(C)c1ccccc1N (stereo unspecified) | 89 to 91 °C |
| Cc1nc2c(OCc3c(Cl)ccc(S(=O)(=O)N4CCC[C@H]4C(=O)NCCCNC(=O)c4ccc(C=NN)cc4)c3Cl)cccn2c1Cl | 115 °C |
| CC(C)(C)OC(=O)NC[C@@H]1CNC(=O)O1 | 116 °C |
| Cc1cc(C)c(S(=O)(=O)On2nnc3ccccc32)c(C)c1 | 128 to 130 °C |
| COc1cc(-c2csc(N)n2)cc([N+](=O)[O-])c1O | 248 to 250 °C |
| N#CC(Nc1ccccc1[N+](=O)[O-])c1c(Cl)cccc1Cl (stereo unspecified) | 195 °C |
| O=C1NCCSC1=NO | 233 to 235 °C |
| COc1ccc(OC)c(C(=O)c2cc3ccc(OC)cc3o2)c1 | 129 to 131 °C |
| OCCCCOc1ccc2cc(O)ccc2c1 | 148 to 150 °C |
| CSc1nc(C)cc2nccn12 | 67 to 69 °C |
| CC(C)c1ccc2c(=O)c(S(C)=O)cn(C)c2c1 (stereo unspecified) | 214 to 215 °C |
